Cited source: patent US20250074901A1

tested-on: Kv7.2 (Homo sapiens, UniProt O43526)
Construct: expressed in transfected cells
test-method-notes: Activation of Kv7.2 (in vitro assay, concentration response curve)
Format: cell-based
condition-info: Kv7.2 activation max %
observed-property: Emax (%)

Consider the following illustrative entries.
Please tell me: Emax of O=C(NCc1ccnc(OC(F)F)c1)NC(C1CC1)C1CC1 [Example 253] , system Kv7.2 (Homo sapiens, UniProt O43526)? 70

Please tell me: Emax of CCC1CC(NC(=O)NCc2ccnc(OC(F)F)c2)C1 (stereo not shown) [Example 60] , system Kv7.2 (Homo sapiens, UniProt O43526)? 77

Please tell me: Emax of O=C(NCc1ccnc(OC(F)F)c1)Nc1cncc(Cl)c1 [Example 161] , system Kv7.2 (Homo sapiens, UniProt O43526)? 43

Please tell me: Emax of O=C(NCc1ccnc(OCF)c1)Nc1ccc(F)c(F)c1 [Example 249] , system Kv7.2 (Homo sapiens, UniProt O43526)? 43

Please tell me: Emax of O=C(NCc1ccnc(OC2CC(F)(F)C2)c1)NC12CC(F)(C1)C2 [Example 224] , system Kv7.2 (Homo sapiens, UniProt O43526)? 40

Please tell me: Emax of O=C(NCc1ccnc(OC(F)F)c1)NCC12CC(F)(C1)C2 [Example 32] , system Kv7.2 (Homo sapiens, UniProt O43526)? 42

Please tell me: Emax of CC1(NC(=O)NCc2ccnc(OC(F)F)c2)CCC(F)(F)C1 (stereo not shown) [Example 142] , system Kv7.2 (Homo sapiens, UniProt O43526)? 40

Please tell me: Emax of O=C(NCc1ccnc(OC(F)F)c1)NC1C2CCC1CC(F)(F)C2 (racemic) [Example 197] , system Kv7.2 (Homo sapiens, UniProt O43526)? 54

A = O=C(Nc1cccc(Cl)c1)NC(CO)c1ccnc(OC(F)F)c1 (stereo not shown) [Example 97]
B = CC1(C)CC(NC(=O)NCc2ccnc(OC(F)F)c2)C1 [Example 188]
Hi there! Just curious which has the higher Emax between A and B . Write down the label of the entry you select. B
(B: 82%, A: 55%)

###

tested-on: Kv7.2 (Homo sapiens, UniProt O43526)
Construct: expressed in transfected cells
test-method-notes: Activation of Kv7.2 (in vitro assay, concentration response curve)
Assay type: cell-based
condition-info: activation of Kv7.2
observed-property: EC50 (nM)

A = O=C(NCc1ccnc(OCC2CC2)c1)N[C@H]1C[C@H](C(F)(F)F)C1
B = O=C(NCc1ccnc(OC(F)F)c1)NCC1(C(F)F)CCC1
Would you kindly point out which of A and B has the smaller EC50 figure? Write down the label of the entry you select. A
(A: 300 nM, B: 450 nM)

###

tested-on: Kv7.2 (Homo sapiens)
test-method-notes: Activation of Kv7.2 (in vitro assay, concentration response curve)
condition-info: activation of Kv7.2
observed-property: EC50 (nM)

Consider the following illustrative entries.
What value of EC50 has been recorded for this entry: CC(F)COc1cc(CNC(=O)N[C@H]2C[C@H](C(F)(F)F)C2)ccn1 (some centres unmarked) 260

What value of EC50 has been recorded for this entry: O=C(NCc1ccnc(OCC(F)(F)F)n1)N[C@H]1C[C@H](C(F)(F)F)C1 340

What value of EC50 has been recorded for this entry: O=C(NCc1cnnc(OCC(F)(F)F)c1)N[C@H]1C[C@H](C(F)(F)F)C1 6830

What value of EC50 has been recorded for this entry: O=C(NCc1ccnc(OC(F)F)c1)N[C@H](C1CCC1)C(F)(F)F 70

I = C[C@@H](F)COc1cc(CNC(=O)N[C@H]2C[C@H](C(F)(F)F)C2)ccn1
II = O=C(NCc1ccnc(OC(F)F)c1)NC1CC[C@@H]2CC[C@H]12 (mixture of isomers)
III = O=C(NCc1ccnc(OC(F)F)c1)NN1CC2CCCC2C1 (centres unmarked)
IV = C[C@@H](F)COc1cc(CNC(=O)NC23CCC(F)(CC2)CC3)ccn1
I would appreciate it if you could sort these 4 compounds by EC50, starting from the smallest number. Answer by listing the labels in the requested order. II, I, IV, III
